Catalogue of binders with associated A450
targetOfAssay: T1, Mouse Id1: Histidine (mouse, UniProt P20067-2 1-148, limits assumed)
T1 construct: Fusion protein made in E. coli from vector pGW07; also called m-Id1-His; not shown: His tag
T1 sequence (looked up): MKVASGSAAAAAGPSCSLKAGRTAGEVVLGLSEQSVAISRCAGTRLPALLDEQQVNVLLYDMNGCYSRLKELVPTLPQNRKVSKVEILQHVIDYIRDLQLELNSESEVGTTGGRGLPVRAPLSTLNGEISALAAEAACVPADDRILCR
assayMethodText: ELISA, Ab 0.025 µg/ml
Kindly provide the numeric value in A450 only, without the unit symbol.

# binder, valueType, measured
measured = [
    ("rabbit monoclonal anti-mouse/human Id3, clone #BCH-4/#42-1 (antibody, V domains shown, Rabbit IgG from a rabbit hybridoma; also called m/h Id3 MoAb 42-1) VH: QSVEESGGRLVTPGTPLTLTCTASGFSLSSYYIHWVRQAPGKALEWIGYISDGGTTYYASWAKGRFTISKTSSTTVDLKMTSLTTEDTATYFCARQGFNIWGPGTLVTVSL VL: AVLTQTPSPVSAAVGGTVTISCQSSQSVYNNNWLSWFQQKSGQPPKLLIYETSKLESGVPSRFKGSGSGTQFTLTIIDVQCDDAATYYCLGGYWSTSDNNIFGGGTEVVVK", "A450", 0.045),
]

Alright, here's another binder for you.
*Q* Specify measured A450 for rabbit monoclonal anti-mouse/human Id3, clone #BCH-4/#17-3 (antibody, V domains shown, Rabbit IgG from a rabbit hybridoma; also called m/h Id3 MoAb 17-3; BCH-3/#17-3) VH: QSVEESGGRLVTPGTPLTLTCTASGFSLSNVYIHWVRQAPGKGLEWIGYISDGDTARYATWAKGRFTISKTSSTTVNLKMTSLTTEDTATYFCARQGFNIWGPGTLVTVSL VL: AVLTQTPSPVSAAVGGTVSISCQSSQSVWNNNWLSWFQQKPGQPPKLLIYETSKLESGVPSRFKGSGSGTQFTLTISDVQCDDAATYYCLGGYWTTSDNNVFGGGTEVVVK .
*A* 0.045

// provenance: patent US20070178531A1
